Reference source for all entries: PubChem BioAssay (NCI)

# Assay details: NCI Yeast Anticancer Drug Screen. Data for the rad52 strain (AID 147);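 note: 0% = growth of vehicle-treated control cultures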
# Study conditions: S. cerevisiae rad52 mutant growth inhibition; at 11.0 µM; hits give high values
This is part of a sample that, as a whole, favours compounds with a hit. Of some 79,000 tested, about 15% had one in any assay. Starred links: 1 amine or outer side, 2 acyl side, 3 side chain; linkers in the order of their positions; H or OH if unused. Positions of bridges follow the written chain, without caps; N, C: chain ends. Non-standard residues stand in square brackets, D forms with d. Residues, ends and D or L forms follow the SMILES beside them. Chains are numbered I, II in the order given. Actinocin(9to1) = Cc1c2oc3c(C)ccc(C(=O)[*:1])c3nc-2c(C(=O)[*:2])c(N)c1=O; aThr = C[C@H](O)[C@H](N)C(=O)O; NMeV = CN[C@H](C(=O)O)C(C)C; Sar = CNCC(=O)O
Provide the recorded growth inhibition for the entries that follow.
Express the result in % but write the number alone.

growth inhibition measured on Cc1c2oc3c(C)ccc(C(=O)N[C@@H]4C(=O)N[C@H](C(C)C)C(=O)N5CCC[C@H]5C(=O)N(C)CC(=O)N(C)[C@@H](C(C)C)C(=O)O[C@H]4C)c3nc-2c(C(=O)N[C@@H]2C(=O)N[C@H](C(C)C)C(=O)N3CCC[C@H]3C(=O)N(C)CC(=O)N(C)[C@@H](C(C)C)C(=O)O[C@H]2C)c(N)c1=O (I: [aThr][dV]P[Sar][NMeV] / II: [aThr][dV]P[Sar][NMeV]; ester I:1-I:C, II:1-II:C; linker I:N-II:N via Actinocin(9to1)) = 85

The value of growth inhibition measured for the compound Cc1cc(NCCCN(C)C)c2ccc3c(ccc4c(NCCCN(C)C)cc(C)nc43)c2n1 turned out to be 17

The reported growth inhibition of the compound Cc1ccc(S(=O)(=O)N/N=C/c2c(O)ccc3ccccc23)cc1 was 81

For record CCOC(=O)C1=C(C)NC(C)=C(C(=O)OCC)C1c1ccc(Cl)cc1 the listed growth inhibition is 92

Briefly, growth inhibition measured for COc1ccc2c(C)cc(N/N=C/c3sccc3C)nc2c1 : -35

Per the record, Cc1ccc(P(c2ccc(C)cc2)c2ccc(C)cc2)cc1 has growth inhibition of 1

Reported growth inhibition for Cc1ccc2nc(N/N=C/c3ccc(C)s3)cc(C)c2c1 was -47

CN(C)/N=N/c1nc[nH]c1C(N)=O yielded growth inhibition of 8

Consider Clc1ccc(C(c2ccc(Cl)cc2)N2CCNCC2)cc1 . Its measured growth inhibition is -1

Measured growth inhibition, COc1ccc(CCN2C(=O)C=CC2=O)cc1OC : 79

The recorded growth inhibition for entry BrC/C=C/C[P+](c1ccccc1)(c1ccccc1)c1ccccc1 equals 96

// field: growth inhibition; key: CCOC(=O)C1=C(C)NC(C)=C(C(=O)OCC)C1c1cccc([N+](=O)[O-])c1 ; value = -35

Lab note: O=c1[nH]cc(F)c(=O)[nH]1 gave growth inhibition of 39

Kindly note the recorded growth inhibition for OC(c1ccc(Br)cc1)(c1cccs1)C1CC1 (configuration not stated) , which is 57

Field growth inhibition (entry O=C(N/N=C/c1ccc2c(c1)CCC2)c1ccccc1[N+](=O)[O-] ) reads -3

Documented growth inhibition of COc1cc(C(C)(C)C)cc(OC)c1C(O)(c1c(OC)cc(C(C)(C)C)cc1OC)c1c(OC)cc(C(C)(C)C)cc1OC : 88

# compound CC(=O)c1ccc(NCN2C(=O)c3ccccc3C2=O)cc1 ; its growth inhibition = 28
